The origin of these recorded values is PubChem BioAssay AID1963976.

tested on: 435261-313-R-J1-PDC tumor spheroid viability; test: Anticancer human tumor 435261-313-R-J1-PDC patient-derived colon adenocarcinoma cell line growth inhibition [PI3K]; settings: second compound 1 µM; first compound 0.00316 µM; spheroids with HUVEC and MSC; active means viability on the fitted dose curve at most 10% of control; inactive means the rest;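 further: spheroids exposed to compounds for 7 days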
Permitted responses: active, inactive

Worked examples follow.
1) CCN1CCN(Cc2ccc(Nc3ncc(F)c(-c4cc(F)c5nc(C)n(C(C)C)c5c4)n3)nc2)CC1 + COc1c(OCCCN2CCOCC2)ccc2c3n(c(=NC(=O)c4cnc(N)nc4)nc12)CCN3    active
2) Cn1ncnc1[C@H]1c2n[nH]c(=O)c3cc(F)cc(c23)N[C@@H]1c1ccc(F)cc1 + COc1c(OCCCN2CCOCC2)ccc2c3n(c(=NC(=O)c4cnc(N)nc4)nc12)CCN3    active
3) CCN1CCN(Cc2ccc(Nc3ncc(F)c(-c4cc(F)c5nc(C)n(C(C)C)c5c4)n3)nc2)CC1 + CC(Nc1ccc2c(c1)OCCn1cc(N3C(=O)OCC3C(F)F)nc1-2)C(N)=O    inactive
4) Cn1ncnc1[C@H]1c2n[nH]c(=O)c3cc(F)cc(c23)N[C@@H]1c1ccc(F)cc1 + CC(Nc1ccc2c(c1)OCCn1cc(N3C(=O)OCC3C(F)F)nc1-2)C(N)=O    inactive
5) CC(=O)c1c(C)c2cnc(Nc3ccc(N4CCNCC4)cn3)nc2n(C2CCCC2)c1=O + CC(Nc1ncnc2nc[nH]c12)c1cc2cccc(Cl)c2c(=O)n1-c1ccccc1    inactive

What call does the record list for CC(=O)c1c(C)c2cnc(Nc3ccc(N4CCNCC4)cn3)nc2n(C2CCCC2)c1=O + CC(Nc1ccc2c(c1)OCCn1cc(N3C(=O)OCC3C(F)F)nc1-2)C(N)=O ? inactive
